Recorded values, source paper PMC10003107.

Biological target: HDAC6 (Homo sapiens, UniProt Q9UBN7)
Sequence (Q9UBN7 2-1215): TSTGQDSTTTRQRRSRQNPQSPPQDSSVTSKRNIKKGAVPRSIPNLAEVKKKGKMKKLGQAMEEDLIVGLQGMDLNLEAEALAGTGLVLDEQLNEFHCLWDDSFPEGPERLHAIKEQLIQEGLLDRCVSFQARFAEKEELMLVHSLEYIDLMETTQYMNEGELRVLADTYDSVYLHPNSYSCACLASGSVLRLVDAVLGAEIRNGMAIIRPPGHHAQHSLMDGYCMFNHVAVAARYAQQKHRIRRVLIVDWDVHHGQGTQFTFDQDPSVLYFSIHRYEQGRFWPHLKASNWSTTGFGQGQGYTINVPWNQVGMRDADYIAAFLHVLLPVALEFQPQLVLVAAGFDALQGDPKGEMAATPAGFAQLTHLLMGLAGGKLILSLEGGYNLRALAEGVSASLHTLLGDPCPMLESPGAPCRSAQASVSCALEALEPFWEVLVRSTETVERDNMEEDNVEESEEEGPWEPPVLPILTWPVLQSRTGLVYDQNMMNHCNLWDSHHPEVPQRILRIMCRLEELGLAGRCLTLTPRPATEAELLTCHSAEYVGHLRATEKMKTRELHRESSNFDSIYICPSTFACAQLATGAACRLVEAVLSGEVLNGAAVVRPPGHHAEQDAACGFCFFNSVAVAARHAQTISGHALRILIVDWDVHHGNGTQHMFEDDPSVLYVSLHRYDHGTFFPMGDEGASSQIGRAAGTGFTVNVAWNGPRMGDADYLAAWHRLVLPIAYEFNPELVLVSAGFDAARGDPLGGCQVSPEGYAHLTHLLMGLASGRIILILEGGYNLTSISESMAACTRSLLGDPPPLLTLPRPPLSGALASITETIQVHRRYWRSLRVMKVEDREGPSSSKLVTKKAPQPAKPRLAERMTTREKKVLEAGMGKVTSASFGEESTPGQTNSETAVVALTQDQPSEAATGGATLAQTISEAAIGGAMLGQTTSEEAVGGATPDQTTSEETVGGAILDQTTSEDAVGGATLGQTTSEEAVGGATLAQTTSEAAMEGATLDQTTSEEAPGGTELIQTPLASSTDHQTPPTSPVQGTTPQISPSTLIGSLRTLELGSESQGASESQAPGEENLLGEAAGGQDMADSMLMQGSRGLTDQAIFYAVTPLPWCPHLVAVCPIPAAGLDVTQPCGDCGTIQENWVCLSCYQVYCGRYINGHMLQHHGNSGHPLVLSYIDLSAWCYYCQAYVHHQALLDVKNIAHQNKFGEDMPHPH

- record smiles: "O=C(NO)c1cnc(NC2(c3cccc(F)c3)CCCCC2)nc1"
  IC50: "1.11 nM"
